System: tubulin and microtubule-associated proteins (Tb+MAP)
experiment notes: GTP-dependent Tb+MAP polymerization
Format: biochemical, mouse
assay context: 100 µM compound; 0.1 mM GTP, 37 °C
measured property: Rate of Tb+MAP Polymerization (dA355/dt) (%)

• CN1CCc2c(c3cc(F)ccc3n2CC(=O)NC23CC4CC(CC(C4)C2)C3)C1.Cl = 154
• CN1CCc2c(c3ccccc3n2CCNC23CC4CC(C)(CC(C)(C4)C2)C3)C1.Cl.Cl = 126
• CN1CCc2c(c3cc(F)ccc3n2CCNC23CC4CC(CC(C4)C2)C3)C1.Cl.Cl = 356
• Cc1ccc2c(c1)c1c(n2CCNC23CC4CC(C)(CC(C)(C4)C2)C3)CCN(C)C1.Cl.Cl = 153
